target: HIV-1 protease (Human immunodeficiency virus type 1 group M subtype B, UniProt P04585); construct: The protease (or proteinase), consisting of only 99 amino acids, is among the smallest enzymes known; experiment: In vitro HIV protease inhibitory assay (HIV Protease FITC Assay); type: biochemical; conditions: HIV-1 Dose 3.700 uM; read-out: HIV-1 Protease % Inhib
Task for the reader: assign each of the following molecules its reported inhibition at 3.7 µM.
Numbers only, in %.

A selection of reference data follows.
CCC(C1=C(O)CC2(CCC3(CC2)OCCO3)OC1=O)c1ccccc1 (stereo not shown) [Example 114]	25.8
CCC(Cc1ccc(Cl)s1)c1cc(O)c(C(c2ccccc2)C2CC2)c(=O)o1 (stereo not shown) [Example 52]	106
CCC(Cc1ccccc1)c1oc(=O)c(C(CC)c2ccccc2)c(O)c1Br (stereo not shown) [Example 111]	92.2
CCC(Cc1c(C)noc1C)c1cc(O)c(C(c2ccccc2)C2CC2)c(=O)o1 (stereo not shown) [Example 54]	109
CCC(CC1OCCO1)c1cc(O)c(C(c2ccccc2)C2CC2)c(=O)o1 (stereo not shown) [Example 60]	106

List the reported inhibition at 3.7 µM of each molecule below.
1. CCC(CC1CCCOC1)c1cc(O)c(C(c2ccccc2)C2CC2)c(=O)o1 (stereo not shown) [Example 61]
2. CC(C)(C)c1nc(CCc2cc(O)c(C(c3ccccc3)C3CC3)c(=O)o2)no1 (stereo not shown) [Example 44]

[108, 57.3]

---

Molecular target: HIV-1 protease (Human immunodeficiency virus type 1 group M subtype B, UniProt P04585)
Construct: The protease (or proteinase), consisting of only 99 amino acids, is among the smallest enzymes known
Experiment: In vitro HIV protease inhibitory assay (HIV Protease FITC Assay)
Type: biochemical
Conditions: HIV-1 Dose 3.300 uM; read-out: HIV-1 Protease % Inhib
Protocol: The HIV protease screening assay is based on a fluorescently labeled substrate which can be resolved from nonlabeled cleavage product using avidin-polystyrene particles, 0.7-0.9 µm. […] The labeled cleavage product is separated from the unreacted substrate via filtration and is read on the Idexx Screen Machine. The data are analyzed by appropriate computer algorithms to ascertain percent inhibition values.
Give inhibition at 3.3 µM for every item shown.
Give bare numbers, in %.

Would you please look over these solved cases?
CC(C)C(CC1CCCOC1)c1cc(O)c(C(c2ccccc2)C2CC2)c(=O)o1 (centres unmarked) [Example 134]	99.7
CCC(CC1CCCN(S(=O)(=O)c2ccc(C)cc2)C1)c1cc(O)c(C(c2ccccc2)C2CC2)c(=O)o1 (centres unmarked) [Example 137]	57.2
CCC(Cc1ccncc1)c1cc(O)c(C(c2ccccc2)C2CC2)c(=O)o1 (centres unmarked) [Example 68]	80.3
CCC(Cc1ccccc1)c1cc(O)c(C(c2cccc(NC(=O)NCc3ccccc3)c2)C2CC2)c(=O)o1 (centres unmarked) [Example 213]	55.4
CCC(Cc1ccccc1)c1cc(O)c(C(c2cccc(NC(=O)CC[C@H](NC(=O)OCc3ccccc3)C(=O)OCc3ccccc3)c2)C2CC2)c(=O)o1 (some centres unmarked) [Example 225]	21

For each of the items listed, what is its inhibition at 3.3 µM?
1. CCC(Cc1cccc(Cl)c1)c1cc(O)c(C(c2ccccc2)C2CC2)c(=O)o1 (centres unmarked) [Example 156]
2. CCCCC1(Cc2ccccc2)CC(O)=C(C(C=Cc2ccccc2)c2ccccc2)C(=O)O1 (centres unmarked) [Example 217]
3. CCCC1(Cc2ccccc2)CC(O)=C(C(C=Cc2ccccc2)c2ccccc2)C(=O)O1 (centres unmarked) [Example 176]
4. O=c1oc(C(CC2CC2)CC2CCCOC2)cc(O)c1C(c1ccccc1)C1CC1 (centres unmarked) [Example 243]
5. CCC(Cc1ccccc1)c1cc(O)c(C(c2cccc(NC(=O)Cc3ccccn3)c2)C2CC2)c(=O)o1 (centres unmarked) [Example 231]

1: 82.6; 2: 33.1; 3: 62.3; 4: 94.7; 5: 98.9
